Tested on: A498
test: NCI tumour cell line growth inhibition, 48 h
Where a name gives a salt, the structure may show the parent alone. Activity calls are given as the source filed them. Cut-off read from the data, not from the text of the source: active = GI50 up to about 1.1 µM and inactive = higher.
Quick reference for GI50 among some compounds

Here's what some known entries look like.
COC(=O)Nc1nc2cc(S(=O)(=O)n3nnc4ccccc43)ccc2[nH]1; 57 µM (inactive)
COCCNc1cncc(C(N)=O)c1; > 100 µM (inactive)
NC(CO)c1ccc(OCc2ccccc2)cc1 (centres undefined); > 100 µM (inactive)
COC(=O)[C@H](CC(C)C)NC1=C(Cl)C(=O)c2c(O)ccc(O)c2C1=O; > 10 µM (inactive)
CCn1c2ccccc2c2ccc(C3C(C(=O)OC)=C(C)NC(C)=C3C(=O)OC)cc21; 19.8 µM (inactive)
C=C1CCC23CC(CC[C@@H]2[C@@]12C[C@@H](c1ccoc1)OC2=O)OC3=O (some centres undefined); > 100 µM (inactive)
Cc1ccc(C(=O)Nc2ccc(S(=O)(=O)O)c3cc(S(=O)(=O)O)cc(S(=O)(=O)O)c23)cc1NC(=S)Nc1cc(C(=O)Nc2ccc(S(=O)(=O)O)c3cc(S(=O)(=O)O)cc(S(=O)(=O)O)c23)ccc1C; > 75 µM (inactive)
N#C/C(=N\c1ccccc1N(C(=O)c1ccccc1)C(=O)c1ccccc1)c1ccccc1; > 59.2 µM (inactive)

Consider the compound shown here: `O=C(NCCN1CCOCC1)c1cn2c(ccc3sc4ccccc4c(=O)c32)n1` What is its recorded GI50? 17.3 µM (inactive)

Consider the compound shown here: `C#CCn1c(I)cc2c(c1=O)COC(=O)[C@]2(O)CC` What is its recorded GI50? > 100 µM (inactive)

Consider the compound shown here: `CCCCc1cc2c(C)cc(=O)oc2c(O)c1O` What is its recorded GI50? 26.5 µM (inactive)

Consider the compound shown here: `COC(=O)C1=C(O)C(O)=C(C(=O)OC)C1` What is its recorded GI50? > 100 µM (inactive)

Consider the compound shown here: `CCOC(=O)c1ccc2c(c1)Cc1cc([N+](=O)[O-])ccc1-2` What is its recorded GI50? 28.4 µM (inactive)

Consider the compound shown here: COc1ccc(C(C#N)NCCCCCCNC(C#N)c2ccc(OC)cc2)cc1 (centres undefined) What is its recorded GI50? > 100 µM (inactive)

Consider the compound shown here: N=C(N)c1ccc(-c2ccc(-c3ccc(C(=N)N)cc3)o2)cc1 [FURAMIDINE HYDROCHLORIDE] What is its recorded GI50? 63.7 µM (inactive)

Consider the compound shown here: Nc1nc(Cl)cc(NCC2(CO)CC(O)C2)n1 (centres undefined) What is its recorded GI50? > 100 µM (inactive)
